- PROTOCOL_DETAILS: chemical genetic growth profiling, strain panel (AID 1159580);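 note: tested at 20 µM; growth read once vehicle control cultures reached saturation at 30 °C; 1 = growth at the plate median or of vehicle wells; lower values mean less growth of the strain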
- MEASUREMENT_CONDITIONS: S. cerevisiae deletion strains, growth OD, locus YIL125W, strain kgd1
In all, about 5,500 compounds went through this assay and about 2,000 (36%) were called active. Inconclusive results (about 18%) are left out. Cut-off read from the data, not from the text of the source: active = normalized growth mostly below about 0.91 (no sharp cut-off); inconclusive = no clear call, values can overlap the other calls; inactive = mostly above about 0.92. Some of the results follow.
Answer with one of the outcomes active, inactive

Ask: Hi, do you know how `COC(=O)NC(=S)Nc1ccccc1NC(=S)NC(=O)OC` came out in this test?
Result: inactive

Ask: Test call for this molecule, please: `COc1nc(NC(C)C)nc(NC(C)C)n1`
Result: inactive

Ask: Fill in: this test's call for `COc1ccc(-c2cc(=O)c3c(O)c(OC)c(OC)cc3o2)cc1O` is ___
Result: inactive

Ask: // param item: `CC(C)Nc1nc(Cl)nc(NC(C)C)n1` ; yields the recorded call
Result: inactive

Ask: Returns: the outcome recorded for `O=c1c(O)cc([C@H]2Oc3cc(O)cc(O)c3C[C@H]2O)cc2c([C@H]3Oc4cc(O)cc(O)c4C[C@H]3O)cc(O)c(O)c12` in this assay.
Result: inactive

Ask: // return assay outcome for `NC(N)=Nc1ccc(Cl)cc1`
Result: inactive

Ask: Recorded test call requested for NC[C@@H]1O[C@H](O[C@@H]2[C@@H](CO)OC(O[C@@H]3[C@@H](O)[C@H](N)C[C@H](N)[C@H]3O[C@H]3O[C@H](CO)[C@@H](O)[C@H](O)[C@H]3N)[C@@H]2O)[C@H](N)[C@@H](O)[C@@H]1O (stereo partly specified)
Result: inactive

Ask: Hello, I am checking results. What call was entered for `C[C@]12CCC(=O)C=C1CCc1ccc(O)cc12` ?
Result: inactive

Ask: Outcome logged for `CC1=CC(=O)C(C(C)C)=CC1=O` in this assay:
Result: active

Ask: What was the test verdict on CSCCC(N)C(=O)NC(CC(C)C)C(=O)NC(Cc1ccccc1)C(=O)O (stereo unspecified) ?
Result: inactive

Ask: Please indicate how the test categorized CC(=O)N1CCN(c2ccc(OCC3CO[C@](Cn4ccnc4)(c4ccc(Cl)cc4Cl)O3)cc2)CC1 (stereo partly specified) .
Result: inactive

Ask: State the result this test recorded for CCOC(=O)CC(SP(=S)(OC)OC)C(=O)OCC (stereo unspecified) .
Result: inactive

Ask: Assay result, entry O=c1c(O)cccc2c(C3Oc4cc(O)cc(O)c4CC3O)cc(O)c(O)c12 (stereo unspecified) — outcome?
Result: active

Ask: Would you mind telling me which call this test gave `COC(=O)[C@H]1[C@H]2C[C@H]3c4[nH]c5cc(OC)ccc5c4CCN3C[C@H]2C[C@@H](OC(=O)c2cc(OC)c(OC)c(OC)c2)[C@@H]1OC` ?
Result: inactive

Ask: I'd appreciate the recorded outcome for `COc1ccccc1N1CCN(CCCNc2cc(=O)n(C)c(=O)n2C)CC1` from this test.
Result: inactive

Ask: Could you check what this test reported for COP(N)(=O)SC (stereo unspecified) ?
Result: inactive

###

- PROTOCOL_DETAILS: chemical genetic growth profiling, strain panel (AID 1159580);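 note: tested at 20 µM; growth read once vehicle control cultures reached saturation at 30 °C; 1 = growth at the plate median or of vehicle wells; lower values mean less growth of the strain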
- MEASUREMENT_CONDITIONS: S. cerevisiae deletion strains, growth OD, locus YMR129W, active compounds read low
About 2,000 (36%) of roughly 5,500 compounds were called active. Not shown: some 18% with an inconclusive outcome. Some of the results follow.
What normalized growth was measured for each of the following?
No unit in the answer, please; the number alone is enough.

Ask: Name the reported normalized growth value associated with the compound O=c1c2cc(O)c(O)cc2oc2cc(O)c(C3O[C@H](CO)[C@H](O)[C@@H](O)[C@H]3O)c(O)c12 (some centres undefined)
Result: 1.02

Ask: Which normalized growth is listed for O=c1c(-c2ccc(O)cc2)coc2c(C3O[C@H](CO)[C@@H](O)[C@H](O)[C@H]3O)c(O)ccc12 (some centres undefined) ?
Result: 0.962

Ask: What does the record list as normalized growth for `Oc1ccc([C@H]2Oc3cc(O)cc(O)c3C[C@H]2O)cc1` ?
Result: 0.989

Ask: Report normalized growth for `O=c1c(O)cc([C@H]2Oc3cc(O)cc(O)c3C[C@H]2O)cc2c([C@H]3Oc4cc(O)cc(O)c4C[C@H]3O)cc(O)c(O)c12` please.
Result: 1.04

Ask: So what does the record say about normalized growth for `CCn1nc(C(=O)O)c(=O)c2cc3c(cc21)OCO3` ?
Result: 1.01

Ask: Using the record for `COC(=O)[C@H]1[C@H]2C[C@H]3c4[nH]c5cc(OC)ccc5c4CCN3C[C@H]2C[C@@H](OC(=O)c2cc(OC)c(OC)c(OC)c2)[C@@H]1OC` , report its normalized growth.
Result: 0.999

Ask: What normalized growth value was documented for this compound, `C[N+]1(C)C[C@H](O)[C@H](C(=O)[O-])C1` ?
Result: 1.01

Ask: What does the record list as normalized growth for `COC1=CC(=O)C=C(OC)C1=O` ?
Result: 0.999

Ask: Report normalized growth for `CC1(C)[C@@H]2CC[C@@]1(C)C(=O)C2` please.
Result: 1

###

- PROTOCOL_DETAILS: chemical genetic growth profiling, strain panel (AID 1159580);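 note: tested at 20 µM; growth read once vehicle control cultures reached saturation at 30 °C; 1 = growth at the plate median or of vehicle wells; lower values mean less growth of the strain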
- MEASUREMENT_CONDITIONS: S. cerevisiae deletion strains, growth OD, locus YKR026C, strain gcn3
The whole screen tested about 5,500 compounds, of which about 2,000 (36%) were called active. Roughly 18% stayed inconclusive and do not appear here. No stated cut-off is given here; in the data, active means normalized growth mostly below about 0.91 (no sharp cut-off); inconclusive means no clear call, values can overlap the other calls; inactive means mostly above about 0.92. The list shows a part of the results.
Classes to choose from: active, inactive

Ask: Answer briefly: the call reported for `CC(C)c1cccc(C(C)C)c1O` in this assay.
Result: inactive

Ask: In this assay, the call recorded for `Oc1ccc([C@H]2Oc3cc(O)cc(O)c3C[C@H]2O)cc1` was what?
Result: inactive

Ask: For CC1(C)S[C@@H]2C(N3C(=O)[C@@H](c4ccccc4)NC3(C)C)C(=O)N2[C@H]1C(=O)O (some centres not stated) , what call appears in the results of this test?
Result: inactive

Ask: Could you check what this test reported for `Nc1ccc(S(=O)(=O)Nc2ncccn2)cc1` ?
Result: inactive

Ask: How did this test come out for `CC(C)c1cccc(O)c(=O)c1` ?
Result: active

Ask: Which result was noted for this molecule in the test: `COC(=O)NC(=S)Nc1ccccc1NC(=S)NC(=O)OC`
Result: inactive

Ask: Hey, what did the test say about COC(=O)CC1C(C)(C)C(OC(C)=O)[C@@H]2[C@@H](OC(C)=O)[C@]34O[C@@]2(O)[C@]1(C)C3CC[C@]1(C)C4=CC(=O)O[C@H]1c1ccoc1 (some centres not stated) ?
Result: inactive

Ask: Record lookup: outcome of this test for Cc1c(OCC(F)(F)F)ccnc1CS(=O)c1nc2ccccc2[nH]1 (configuration not stated) ?
Result: inactive

Ask: Called result for C[C@@H]1O[C@@H](O[C@H]2CC[C@]3(C=O)C4CC[C@]5(C)[C@@H](C6=CC(=O)OC6)CC[C@]5(O)C4CC[C@]3(O)C2)[C@H](O)[C@H](O)[C@H]1O (some centres not stated)
Result: inactive

Ask: Hey, what did the test say about C[C@@H]1CCC2[C@](C)(CO)[C@@H](O)CC[C@]2(C)[C@@]12CC[C@@](CO)(CCO)O2 (some centres not stated) ?
Result: inactive

Ask: Fill in: this test's call for COC1C(O)C(O[C@H]2CC[C@]3(C=O)C4C(CC[C@]3(O)C2)[C@@]2(O)CC[C@H](C3=CC(=O)OC3)[C@@]2(C)C[C@H]4OC(C)=O)OC(C)C1OC(C)=O (some centres not stated) is ___
Result: inactive

Ask: Tell me the assay call for `O=c1c(O)cc([C@H]2Oc3cc(O)cc(O)c3C[C@H]2O)cc2c([C@H]3Oc4cc(O)cc(O)c4C[C@H]3O)cc(O)c(O)c12` please.
Result: inactive

Ask: For `Cc1ncc(CO)c(CO)c1O` , which call appears in the assay record?
Result: inactive

Ask: So what was the verdict on C[C@H]1O[C@@H](O[C@H]2[C@@H](O)C[C@H](O[C@H]3[C@@H](O)C[C@H](O[C@H]4CC[C@]5(C)C6CC[C@]7(C)[C@@H](C8=CC(=O)OC8)CC[C@]7(O)C6CC[C@@H]5C4)O[C@@H]3C)O[C@@H]2C)C[C@H](O)[C@@H]1O (some centres not stated) in this test?
Result: inactive

Ask: Status in this test for `CC(=O)Oc1ccccc1C(=O)Oc1ccccc1C(=O)O` ?
Result: inactive

Ask: Record request — test call for COC1CC(O[C@H]2CC[C@]3(C=O)C4CC[C@]5(C)C(C6=CC(=O)OC6)CC[C@]5(O)C4CC[C@]3(O)C2)OC(C)C1O (some centres not stated)
Result: inactive

Ask: Dear all, I need the recorded test outcome for CC(C)(C)NCC(O)COc1cccc2c1C[C@H](O)[C@H](O)C2 (some centres not stated) , thank you.
Result: inactive
